Origin of measurements: patent US20070286858A1

Measured ED50, listed per entry.
measurement target: T1, human RAGE-Fc fusion protein (human, UniProt Q15109 23-344)
T1 construct: also called hRAGE-Fc; huRAGE-Fc; not shown: Fc domain of human IgG
assay explanation: competition ELISA on human RAGE-Fc; labelled competitor not named
Express your answer in nM, writing the number without its unit.

- binder: "V2.2 (Y46E) / v3.0 (antibody, V domains shown, XT-H2 construct expressed in COS cells; also called XT-H2 hVH V2.2 + hVL V3.0) VH: QVQLVQSGAEVKKPGASVKVSCKASGYTFTTYWMHWVRQRPGQGLEWIGYINPSTGYTEYNQKFKDRVTMTADTSISTAYMELSRLRSDDTAVYYCARWAGYTIDYWGQGTLVTVSS VL: DIVMTQSPDSLAVSLGERATINCKSTKSLLNSDGFTYLDWYQQKPGQPPKLLIYLVSDRFSGVPDRFSGSGSGTDFTLTISSLQAEDVAVYYCFQSNSLPLTFGGGTKVEIK"
  ED50, nM: 5
- binder: "V2.1 (R40A) / v2.1 (antibody, V domains shown, XT-H2 construct expressed in COS cells; also called XT-H2 hVH V2.1 + hVL V2.1) VH: QVQLVQSGAEVKKPGASVKVSCKASGYTFTTYWMHWVRQAPGQGLYWIGYINPSTGYTEYNQKFKDRVTMTADTSISTAYMELSRLRSDDTAVYYCARWAGYTIDYWGQGTLVTVSS VL: DIVMTQTPLSLSVTPGQPASISCKSTKSLLNSDGFTYLDWYLQKPGQSPQLLIYLVSDRFSGVPDRFSGSGSGTDFTLKISRVEAEDVGVYYCFQSNSLPLTFGGGTKVEIK"
  ED50, nM: 7.5

Now for another entry.
So what does the record say about ED50 for V2.1 (R40A) / v2.0 (antibody, V domains shown, XT-H2 construct expressed in COS cells; also called XT-H2 hVH V2.1 + hVL V2.0) VH: QVQLVQSGAEVKKPGASVKVSCKASGYTFTTYWMHWVRQAPGQGLYWIGYINPSTGYTEYNQKFKDRVTMTADTSISTAYMELSRLRSDDTAVYYCARWAGYTIDYWGQGTLVTVSS VL: DVVLTQTPLSLSVTPGQPASISCKSTKSLLNSDGFTYLDWYLQKPGQSPQLLIYLVSDRFSGVPDRFSGSGSGTDFTLKISRVEAEDVGVYYCFQSNSLPLTFGGGTKVEIK ? 4
